Test: Plasma concentration in rat arteriovenous shunt model
Format: in vivo
Settings: SD, 10 mg/kg oral, n = 6
parameter.measured: Cmax (µM)

> print(dat)
                                   molecule  endpoint.value
1  O=C(NCCCOc1ccc2[nH]c(=O)ccc2c1)N(C1CC1)[C@@H]1CCCC[C@H]1O            0.43

* * *

Assay: Plasma concentration of K-134 in mice
Format: in vivo, mouse
Settings: mouse, plasma; male ICR mice, 10 mg/kg single oral, 10 min after administration, n = 6
Description: We also measured plasma concentration of K-134 at 10 min after a single oral administration of K-134 to male ICR mice (Japan SLC Inc., 5 weeks old).
parameter.measured: concentration at 10 min

> print(dat)
                                   molecule  endpoint.value
1  O=C(NCCCOc1ccc2[nH]c(=O)ccc2c1)N(C1CC1)[C@@H]1CCCC[C@H]1O          4.3 µM

* * *

Experiment: Plasma concentration of K-134 in mice
Format: in vivo, mouse
Conditions: mouse, plasma; male ICR mice, 1 mg/kg single oral, 10 min after administration, n = 6
parameter.measured: concentration at 10 min (nM)

> print(dat)
                                   compound  units  endpoint.value
1  O=C(NCCCOc1ccc2[nH]c(=O)ccc2c1)N(C1CC1)[C@@H]1CCCC[C@H]1O [K-134]     nM             400

* * *

Test: Pharmacokinetics of cilostazol and its active metabolites in rats
Type: in vivo, rat
Conditions: rat, plasma; single oral cilostazol 300 mg/kg, non-fasting male SD rats, n = 3; parent and metabolites
parameter.measured: Cmax

> print(dat)
                                 molecule  endpoint.value
1  O=C1CCc2cc(OCCCCc3nnnn3C3CCCCC3)ccc2N1         2400 nM

* * *

Assay: Pharmacokinetics of cilostazol and its active metabolites in rats
Format: in vivo, rat
Details: rat, plasma; single oral cilostazol 300 mg/kg, non-fasting male SD rats, n = 3; parent and metabolites; read-out: AUC0-24h
parameter.measured: AUC(0-t) (µM·h)

> print(dat)
                                 molecule  parameter.measured  endpoint.value
1  O=C1CCc2cc(OCCCCc3nnnn3C3CCCCC3)ccc2N1            AUC(0-t)            30.1

* * *

Assay: Plasma concentration of K-134 in mice
Assay type: in vivo, mouse
Conditions: mouse, plasma; male ICR mice, 3 mg/kg single oral, 10 min after administration, n = 6
Method: We also measured plasma concentration of K-134 at 10 min after a single oral administration of K-134 to male ICR mice (Japan SLC Inc., 5 weeks old).
parameter.measured: concentration at 10 min (nM)

> print(dat)
                                   molecule       parameter.measured  endpoint.value
1  O=C(NCCCOc1ccc2[nH]c(=O)ccc2c1)N(C1CC1)[C@@H]1CCCC[C@H]1O [K-134]  concentration at 10 min            1100

* * *

Assay: Pharmacokinetics of cilostazol and its active metabolites in rats
Assay type: in vivo, rat
Conditions: rat, plasma; single oral cilostazol 300 mg/kg, non-fasting male SD rats, n = 3; parent and metabolites
parameter.measured: half-life

> print(dat)
                                 molecule  parameter.measured  endpoint.value
1  O=C1CCc2cc(OCCCCc3nnnn3C3CCCCC3)ccc2N1           half-life           5.4 h

* * *

Experiment: Plasma concentration in rat arteriovenous shunt model
Assay type: in vivo
Settings: SD, 30 mg/kg oral, n = 6
parameter.measured: Cmax (nM)

> print(dat)
                                 molecule  parameter.measured  endpoint.value
1  O=C1CCc2cc(OCCCCc3nnnn3C3CCCCC3)ccc2N1                Cmax            2080

* * *

Assay: Pharmacokinetics of cilostazol and its active metabolites in rats
Format: in vivo, rat
Settings: male, SD, rat, plasma, po, 300 mg/kg, single oral cilostazol 300 mg/kg, non-fasting male SD rats, n = 3; parent and metabolites; read-out: Tmax
Procedure: Pharmacokinetic variables (Cmax, AUC, Tmax and T1/2) were calculated from the plasma drug concentration-time curve. Cilostazol was orally administered to rats under non-fasting conditions at a single dose of 300 mg/kg to determine the concentration-time profile in serum (n = 3). Values are means (± SEM). […]
parameter.measured: Tmax

> print(dat)
                                 molecule  parameter.measured  endpoint.value
1  O=C1CCc2cc(OCCCCc3nnnn3C3CCCCC3)ccc2N1                Tmax           > 3 h

Every entry's value here was drawn from paper PMC3479105.
